Tested on: SR leukemia
Test: NCI-60 one-dose screen, 48 h (100 = growth as untreated, 0 = no growth, -100 = all killed)
Conditions: 10 µM unless noted
The panel holds about 83,000 compounds, 20% with a hit somewhere; the sample as a whole holds those more often.
# key: entry, value: growth
Quantity Kind: growth (%)

Compound: COc1ccc(-c2nocc2-c2cc(OC)c(OC)c(OC)c2)cc1
Quantity Kind: growth
Experimental Value: 23.6
--
Compound: O=C(COc1ccc(/C=C2\Cc3ccc(Cl)cc3C2=O)cc1)Nc1nccs1
Quantity Kind: growth
Experimental Value: 148
--
Compound: O=C(c1c(F)ccc(NS(=O)(=O)N2CC[C@@H](F)C2)c1F)c1c[nH]c2ncc(-c3cnc(C4CC4)nc3)cc12
Quantity Kind: growth
Experimental Value: 21.6
--
Compound: COc1ccc2c(c1OC)C(=O)O[C@@H]2[C@H]1c2c(c(C#CC#Cc3ccc(F)c(F)c3)c3c(c2OC)OCO3)CCN1C
Quantity Kind: growth
Experimental Value: 60.2
--
Compound: CCN1CCN(c2cc(C)nc(N(CCCNc3ccnc4cc(Cl)ccc34)Cc3ccc4c(c3)OCO4)n2)CC1
Quantity Kind: growth
Experimental Value: -40.3
--
Compound: CC(CCCC(=O)O)c1ccoc1 (centres undefined)
Quantity Kind: growth
Experimental Value: 102
--
Compound: NC(=O)c1c(OCc2c(F)cc(Br)cc2F)nsc1NC(=O)NCCCCN1CCCC1
Quantity Kind: growth
Experimental Value: -34.4
--
Compound: CCOc1cc2ncc(C#N)c(Nc3ccc(F)c(Cl)c3)c2cc1NC(=O)/C=C/CN(C)C
Quantity Kind: growth
Experimental Value: -14
--
Compound: COc1cc(Nc2ncc(F)c(Nc3ccc4c(n3)N(COP(=O)(O)O)C(=O)C(C)(C)O4)n2)cc(OC)c1OC
Quantity Kind: growth
Experimental Value: 21.6
--
Compound: CCN(CCO)CCCOc1ccc2c(Nc3cc(CC(=O)Nc4cccc(F)c4)[nH]n3)ncnc2c1
Quantity Kind: growth
Experimental Value: 12.3
--
Compound: O=C1CC(c2ccc3c(c2)OCO3)c2ncn(-c3ccc(Cl)cc3)c2N1 (centres undefined)
Quantity Kind: growth
Experimental Value: 24.4
--
Compound: CCCCOc1nc2cc(Cl)ccc2cc1/C=C/c1cc(/C=C/c2cc3ccc(Cl)cc3nc2OCCCC)n(-c2ccccc2)n1
Quantity Kind: growth
Experimental Value: 73
--
Compound: CC(=O)C(C(C)=O)C(c1ccccc1)C(C(C)=O)C(C)=O
Quantity Kind: growth
Experimental Value: 105
--
Compound: COc1cc2ncnc(Nc3cccc(Cl)c3F)c2cc1OC(=O)N1CCN(C)C[C@H]1C
Quantity Kind: growth
Experimental Value: 62.6
--
Compound: NC(=O)c1n[nH]n2c1nc(=O)c1c3c(sc12)CCCC3
Quantity Kind: growth
Experimental Value: 101
--
Compound: C=CCN1C(=O)c2cccc3c(-c4ccc5c(c4)ncn5C4CCCCC4)ccc(c23)C1=O
Quantity Kind: growth
Experimental Value: 39.8
--
Compound: CNC(=O)c1cc(COc2nnc(Nc3ccc(Cl)cc3)c3ccoc23)ccn1
Quantity Kind: growth
Experimental Value: 61.3
--
Compound: CC#CC(=O)N1CCC[C@H]1c1nc(-c2ccc(C(=O)Nc3ccccn3)cc2)c2c(N)nccn12
Quantity Kind: growth
Experimental Value: 68.3
--
Compound: COc1ccc(-c2cc3c(C)nc(N)nc3n(C3CCC(OCCO)CC3)c2=O)cn1 (centres undefined)
Quantity Kind: growth
Experimental Value: 1.95

The reported numbers originate from PubChem BioAssay (NCI).
